assay: physchem; conditions: buffer, pH 7.4
test-readout: logD
Answers are plain numbers.

Examples from the recorded data:
O=C(c1c(O)cncc1Cl)N1CCC2(CCC2)C1	1.2
COc1cc(Cl)cc(Cl)c1C(=O)N1CCC2(CCC2)C1	4
CC1Cc2ccccc2N1C(=O)c1c(O)cc(Cl)cc1Cl (stereo not drawn)	3.5
Cn1cc(C2CCN(C(=O)c3c(O)cc(Cl)cc3Cl)C2)cn1 (racemic)	1.6
O=C(c1ncc(Cl)cc1O)N1CCC2(CCC2)C1	4.9
O=C(c1c(O)cc(Cl)cc1Cl)N1CCC(c2cccnc2)C1 (racemic)	1.7

Record logD per entry; entries follow.
1. O=C(c1c(O)cc(Cl)cc1Cl)N1CCC(Cc2ccccc2)C1 (stereo not drawn)
2. O=C(c1c(O)cc(Cl)cc1Cl)N1CCCC2(CCC2)C1

[reply]
3.8
3.7
